- assay notes: Stability of heterocyclic salts in methanol (CD3OD) monitored by NMR
- reported conditions: solution in CD3OD monitored by NMR
Catalogue of Stability in MeOH (Initial Decomposition) readings, one per entry.
property: Stability in MeOH (Initial Decomposition)

| structure notation | value observed |
| --- | --- |
| C[n+]1c(C#Cc2ccccc2)sc2ccccc21 | 0.167 to 0.25 h |
| C(#Cc1nc2ccccc2s1)c1ccccc1 | >24 h |
| C#CC[n+]1cccnc1C#Cc1ccccc1 | >24 h |
| C#CC[n+]1c(C#Cc2ccc(C)cc2)sc2ccccc21 | 0.333 to 0.5 h |
| C#CC[n+]1c(-c2ccccc2)c(-c2ccccc2)n(C)c1C#Cc1ccccc1 | >24 h |
| C(#Cc1nccs1)c1ccccc1 | >24 h |

Data origin, for the record: patent US6686345B2
